Test system: HCV replicon
Assay: HCV replicon luciferase assay
Format: cell-based
Conditions: Hepatitis C virus, Huh-7, 72 h
Procedure: Cell lines. […] HCV replicon luciferase assay. […] After 3 days incubation at 37° C., cells were analyzed for Renilla Luciferase activity using the EnduRen substrate (Promega cat #E6485) according to the manufacturer's directions. […] The plates were incubated for at least 1 h at 37° C. then read on a Viewlux Imager (PerkinElmer) using a luminescence program. […]
pEC50: −log10 of the molar value.
Attribute: pEC50

CCN(CC)c1cc2oc(-c3ccc(F)cc3)c(C(=O)NC)c2cc1-c1cccc(C(=O)NC23CC4(C)CC(C)(CC(O)(C4)C2)C3)c1 | > 7.00
CCN(CC)c1cc2oc(-c3ccc(F)cc3)c(C(=O)NC)c2cc1-c1cccc(C(=O)NC2CCOC2)c1 (stereo not shown) | > 7.00
CCN(c1cc2oc(-c3ccc(F)cc3)c(C(=O)NC)c2cc1-c1cccc(C(=O)NC2(C#N)CCOCC2)c1)S(C)(=O)=O | 8.38

Request: GET /values?readout=pEC50&item= CCN(CC)c1cc2oc(-c3ccc(F)cc3)c(C(=O)NC)c2cc1-c1cccc(C(=O)NCCCn2ccnc2)c1
Result: > 7.00

Request: Follow-up entry: CCN(CC)c1cc2oc(-c3ccc(F)cc3)c(C(=O)NC)c2cc1-c1cccc(C(=O)N[C@]2(C)[C@H](C(=O)OC)C[C@@H]3C[C@H]2C3(C)C)c1
Result: > 7.00

Request: Also CCN(CC)c1cc2oc(-c3ccc(F)cc3)c(C(=O)NC)c2cc1-c1cccc(C(=O)NCC2(COc3ccccc3)CC2)c1 ?
Result: 6.76

Request: Entry CCN(CC)c1cc2oc(-c3ccc(F)cc3)c(C(=O)NC)c2cc1-c1cccc(C(=O)NCCOCc2ccccc2)c1 please
Result: > 7.00

Request: Cool, now CCN(CC)c1cc2oc(-c3ccc(F)cc3)c(C(=O)NC)c2cc1-c1cccc(C(=O)NCCCn2cncn2)c1
Result: > 7.00

Request: What would you report for CCN(CC)c1cc2oc(-c3ccc(F)cc3)c(C(=O)NC)c2cc1-c1cccc(C(=O)NCCNS(=O)(=O)c2ccc(C)cc2)c1 ?
Result: 7.49

Request: Ok, now CCN(CC)c1cc2oc(-c3ccc(F)cc3)c(C(=O)NC)c2cc1-c1cccc(C(=O)N[C@H]2C(O)O[C@H](CO)[C@@H](O)[C@@H]2O)c1 (stereo partly shown)
Result: 5.55

---

Test system: HCV replicon
Experiment: HCV replicon luciferase assay
Assay type: cell-based
Conditions: Hepatitis C virus, Huh-7, 72 h
Catalogue of compounds with associated EC50

Request: So what's the measured EC50 for this one? CCN(c1cc2oc(-c3ccc(F)cc3)c(C(=O)NC)c2cc1-c1cccc(C(=O)N[C@@H]2CCNC2=O)c1)S(C)(=O)=O [Compound 5003]
Result: 100 to 1000 nM

---

System: HCV replicon
Assay: HCV replicon luciferase assay
Type: cell-based
Settings: Hepatitis C virus, Huh-7, 72 h
pEC50: −log10 of the molar value.
measured.metric: pEC50

Examples with answers:
CCN(CC)c1cc2oc(-c3ccc(F)cc3)c(C(=O)NC)c2cc1-c1cccc(C(=O)NC(CO)(CO)CO)c1 | > 7.00
CCN(CC)c1cc2oc(-c3ccc(F)cc3)c(C(=O)NC)c2cc1-c1cccc(C(=O)N[C@@H]2CCCC[C@H]2C(=O)N[C@@H]2CCCC[C@H]2C(=O)O)c1 | < 6.00

Request: Would you mind telling me what pEC50 value was observed for CCN(CC)c1cc2oc(-c3ccc(F)cc3)c(C(=O)NC)c2cc1-c1cccc(C(=O)NCCC2(O)CCCC2)c1 ?
Result: > 7.00

---

Recorded EC50 by entry
Test system: HCV replicon
Assay: HCV replicon luciferase assay
Type: cell-based
Settings: Hepatitis C virus, Huh-7, 72 h

Sample records with EC50:
CCN(CC)c1cc2oc(-c3ccc(F)cc3)c(C(=O)NC)c2cc1-c1cccc(C(=O)NCCCS(=O)(=O)O)c1 | > 1 µM
CCN(CC)c1cc2oc(-c3ccc(F)cc3)c(C(=O)NC)c2cc1-c1cccc(C(=O)NCCCOc2ccccc2)c1 | < 0.1 µM
CCN(CC)c1cc2oc(-c3ccc(F)cc3)c(C(=O)NC)c2cc1-c1cccc(C(=O)NCCOc2ccccc2)c1 | < 0.1 µM
CCN(CC)c1cc2oc(-c3ccc(F)cc3)c(C(=O)NC)c2cc1-c1cccc(C(=O)NC2(CC(=O)O)CCCCC2)c1 | < 0.1 µM
CNC(=O)c1c(-c2ccc(F)cc2)oc2cc(N)c(-c3cccc(C(=O)NC(CO)(CO)CO)c3)cc12 | > 1 µM

Request: Which value of EC50 has been reported for CCN(CC)c1cc2oc(-c3ccc(F)cc3)c(C(=O)NC)c2cc1-c1cccc(C(=O)N[C@@]23C[C@@H]4C[C@@H](C[C@@](O)(C4)C2)C3)c1 in the records?
Result: < 0.1 µM

Request: Also check CCN(CC)c1cc2oc(-c3ccc(F)cc3)c(C(=O)NC)c2cc1-c1cccc(C(=O)N[C@@H]2C3CCC(C3)[C@@H]2CO)c1 (some centres unmarked)
Result: < 0.1 µM

Request: Note, next up: C#CC1(NC(=O)c2cccc(-c3cc4c(C(=O)NC)c(-c5ccc(F)cc5)oc4cc3NCC)c2)CCCCC1
Result: < 0.1 µM

Request: Param item: CCN(CC)c1cc2oc(-c3ccc(F)cc3)c(C(=O)NC)c2cc1-c1cccc(C(=O)N[C@H](CC(=O)O)CC(C)C)c1
Result: < 0.1 µM

Request: How about CCN(CC)c1cc2oc(-c3ccc(F)cc3)c(C(=O)NC)c2cc1-c1cccc(C(=O)NC(C)[C@@]23C[C@@H]4C[C@@H](C[C@@](O)(C4)C2)C3)c1 (some centres unmarked) ?
Result: < 0.1 µM

Request: How about CCNc1cc2oc(-c3ccc(F)cc3)c(C(=O)NC)c2cc1-c1cccc(C(=O)NC2(C#N)CCN(Cc3ccccc3)CC2)c1 ?
Result: < 0.1 µM

Request: Can you check CCN(CC)c1cc2oc(-c3ccc(F)cc3)c(C(=O)NC)c2cc1-c1cccc(C(=O)NC2(CC(=O)O)CCCC2)c1 next?
Result: 0.0222 µM

Request: Record: CCN(CC)c1cc2oc(-c3ccc(F)cc3)c(C(=O)NC)c2cc1-c1cccc(C(=O)NC[C@H]2CCCC[C@H]2O)c1
Result: < 0.1 µM

Request: What about this compound? CCN(CC)c1cc2oc(-c3ccc(F)cc3)c(C(=O)NC)c2cc1-c1cccc(C(=O)NCS(=O)(=O)O)c1
Result: > 1 µM

---

The molecules listed here are annotated with their pEC50.
Test system: HCV replicon
Assay: HCV replicon luciferase assay
Assay type: cell-based
Settings: Hepatitis C virus, Huh-7, 72 h
pEC50: −log10 of the molar value.

# annotated cases, reported pEC50 shown
CCN(CC)c1cc2oc(-c3ccc(F)cc3)c(C(=O)NC)c2cc1-c1cccc(C(=O)N[C@H](CC(=O)N[C@H](CC(=O)O)CC(C)C)CC(C)C)c1 [Compound 1044] | 6.00 to 7.00
CCN(CC)c1cc2oc(-c3ccc(F)cc3)c(C(=O)NC)c2cc1-c1cccc(C(=O)N[C@H]2CCC[C@H]2C(=O)O)c1 [Compound 1041] | 6.87

Kindly review the next molecule as well.
Request: What value of pEC50 on HCV replicon does CCN(CC)c1cc2oc(-c3ccc(F)cc3)c(C(=O)NC)c2cc1-c1cccc(C(=O)NCCN2CCNC2=O)c1 [Compound 1014] have?
Result: > 7.00

---

Readings of pEC50 for the listed molecules
Tested on: HCV replicon
Assay: HCV replicon luciferase assay
Type: cell-based
Conditions: Hepatitis C virus, Huh-7, 72 h
pEC50: −log10 of the molar value.

Answered cases to consult:
CCN(CC)c1cc2oc(-c3ccc(F)cc3)c(C(=O)NC)c2cc1-c1cccc(C(=O)NC2CNC(=O)C2)c1 (centres unmarked) [Compound 1027] | > 7.00
C#CC1(NC(=O)c2cccc(-c3cc4c(C(=O)NC)c(-c5ccc(F)cc5)oc4cc3N(CC)S(C)(=O)=O)c2)CCCCC1 [Compound 5001] | > 7.00
CCN(CC)c1cc2oc(-c3ccc(F)cc3)c(C(=O)NC)c2cc1-c1cccc(C(=O)N[C@H]2C3CCC(C3)[C@H]2C(=O)O)c1 (some centres unmarked) [Compound 1038] | 6.00 to 7.00

Request: Consider the molecule shown here: CCN(CC)c1cc2oc(-c3ccc(F)cc3)c(C(=O)NC)c2cc1-c1cccc(C(=O)NCc2ccccc2C(=O)OC)c1 [Compound 1010] What is its recorded pEC50?
Result: > 7.00

Request: And what about the molecule CCN(CC)c1cc2oc(-c3ccc(F)cc3)c(C(=O)NC)c2cc1-c1cccc(C(=O)NC2CC(O)C2)c1 (centres unmarked) [Compound 1005] ?
Result: > 7.00
